Value source: PubChem BioAssay (NCI)

- Test system: A549 NSCLC
- test.name: NCI tumour cell line growth inhibition, 48 h
For each record, write down the corresponding GI50.

QUERY: // query GI50 value for entry "CNCCNc1nc2ccccc2c2c(=O)c3cc(OC)ccc3sc12"
RESULT: 1710 nM

QUERY: // query GI50 value for entry "C/C(=C(/c1ccc(O)cc1)c1ccc(Cl)cc1)c1ccccc1"
RESULT: 723 nM

QUERY: // query GI50 value for entry "C=C(C)[C@@H]1CC[C@]2(CO)CC[C@]3(C)[C@H](CC[C@@H]4[C@@](C)(CCCN)[C@H](C(=C)C)CC[C@]43C)[C@@H]12"
RESULT: 1730 nM

QUERY: // query GI50 value for entry "Cc1nn(CNc2ccccc2C(F)(F)F)c(=S)n1/N=C/c1ccc(F)cc1"
RESULT: > 100000 nM

QUERY: // query GI50 value for entry "COc1cc2c(c(OC)c1OC)-c1ccc(O)c(=O)cc1[C@@H](NC(C)=O)CC2"
RESULT: 10100 nM

----------
- Tested on: HOP-62 NSCLC
- test.name: NCI tumour cell line growth inhibition, 48 h; in the data active = GI50 below about 0.43 µM; inactive = the rest
// allowed return values: TRUE (active), FALSE (inactive)

QUERY: For CC12CC=CCC1CCC1C2CCC2(C)C(c3ccc(=O)oc3)CCC12O (stereo not given) , what call appears in the results of this test?
RESULT: TRUE

QUERY: For "Clc1ccc2c(c1)C(N1CCNCC1)=Nc1ccccc1O2" , what call appears in the results of this test?
RESULT: FALSE

QUERY: For "O=C(N/N=C/c1ccc(Cl)cc1)c1[nH]c2ccc(Cl)cc2c1-c1ccccc1" , what call appears in the results of this test?
RESULT: FALSE

QUERY: For "Cc1cc2nc(-c3c(N)ncc(C#N)c3-c3ccc(Cl)cc3)[nH]c2cc1C" , what call appears in the results of this test?
RESULT: FALSE

QUERY: For CS(=O)(=O)[O-].CS(=O)(=O)[O-].NC1CCCCC1N.[Pt+4] (stereo not given) , what call appears in the results of this test?
RESULT: FALSE

QUERY: For "CCCCCCNC(=O)n1cc(F)c(=O)[nH]c1=O" , what call appears in the results of this test?
RESULT: FALSE

QUERY: For "COc1ccc(NC(=O)n2nc(/C=C\c3ccc(O)c(OC)c3)cc2/C=C\c2ccc(O)c(OC)c2)cc1" , what call appears in the results of this test?
RESULT: FALSE

QUERY: For "CC(C)(C)n1cc(-c2ccnc(NCCCNS(=O)(=O)c3ccc(Br)cc3)c2)c(-c2cccc(O)c2)n1" , what call appears in the results of this test?
RESULT: FALSE

QUERY: For "Oc1c(CN2CCCC2)cc(CSCc2ccccc2)c2cccnc12" , what call appears in the results of this test?
RESULT: FALSE

QUERY: For "CNCCNc1nc2ccccc2c2c(=O)c3cc(OC)ccc3sc12" , what call appears in the results of this test?
RESULT: FALSE

QUERY: For "CC[C@]1(O)C[C@@H]2CN(CCc3c([nH]c4ccccc34)[C@@](C(=O)OC)(c3cc4c(cc3OC)N(C)[C@H]3[C@@](O)(C(N)=O)[C@H](O)[C@]5(CC)[C@@H]6C[C@@H]6CN6CC[C@]43[C@@H]65)C2)C1" , what call appears in the results of this test?
RESULT: TRUE

QUERY: For "CCCCN(CCCC)CCc1c(C)cc(C)c(CCN(CCCC)CCCC)c1O" , what call appears in the results of this test?
RESULT: FALSE

QUERY: For "COc1cc(/C=C2\CN(C(=O)CCN3CCC(=NO)CC3)C/C(=C\c3cc(OC)c(OC)c(OC)c3)C2=O)cc(OC)c1OC" , what call appears in the results of this test?
RESULT: FALSE

QUERY: For "CC[C@@]12C=CCN3CC[C@]4(c5cc(NC(=O)COc6cc(OCC(=O)Nc7cc8c(cc7OC)N(C)[C@H]7[C@@](O)(C(=O)OC)[C@H](OC(C)=O)[C@]9(CC)C=CCN%10CC[C@]87[C@@H]%109)cc7oc(-c8ccccc8)cc(=O)c67)c(OC)cc5N(C)[C@@H]4[C@](O)(C(=O)OC)[C@H]1OC(C)=O)[C@H]32" , what call appears in the results of this test?
RESULT: FALSE

QUERY: For "COC(=O)[C@H]1[C@H]2C[C@@H]3c4[nH]c5cc(OC)ccc5c4CCN3C[C@H]2C[C@@H](OC(=O)/C=C/c2cc(OC)c(OC)c(OC)c2)[C@@H]1OC" , what call appears in the results of this test?
RESULT: FALSE
